# protocol_notes: Aqueous solubility measurements
# Assay type: physicochemical
# conditions_used: pH 7.4 USP buffer, 25 °C, pH 7.4, aqueous buffer, thermodynamic from solid, media pH 7.4 (USP); 24 hours at 25° C.; read-out: HPLC solubility
readout: solubility at 24 h (µg/mL)
// return numeric value only (unit: µg/mL, not printed)

Give its solubility at 24 h value. Item: Cc1nc(-c2ccc(OCC(C)C)c(C#N)c2)sc1C(=O)O [Form G of U.S. Pat. No. 6,225,474, reference compound]
3330

----------
# protocol_notes: Hygroscopicity measurements (DVS sorption/desorption profiles)
# Type: physicochemical
# conditions_used: Target % P/P0 10.0; 25° C.
# Experimental: The sorption/desorption profiles of the forms of the present invention were tested at 25° C. under 0-90% relative humidity. The forms of the present invention were classified according to the following criteria: Deliquescent: Sufficient water is absorbed to form a liquid. […] Hygroscopic: Increase in mass is less than 15% and equal to or greater than 2%. Slightly hygroscopic: Increase in mass is less than 2% and equal to or greater than 0.2%. Non-hygroscopic: Increase in mass is less than 0.2%.
Examples of compounds with documented Change in Mass (%) - ref, Hysteresis follow.
// return numeric value only (unit: %, not printed)

compound: Cc1nc(-c2ccc(OCC(C)C)c(C#N)c2)sc1C(=O)O [Form IX]
readout: Change in Mass (%) - ref, Hysteresis
value_units: %
value_observed: 0.121
--
compound: Cc1nc(-c2ccc(OCC(C)C)c(C#N)c2)sc1C(=O)O [Form G of U.S. Pat. No. 6,225,474, reference compound]
readout: Change in Mass (%) - ref, Hysteresis
value_units: %
value_observed: 0.241
--
compound: Cc1nc(-c2ccc(OCC(C)C)c(C#N)c2)sc1C(=O)O [Form V]
readout: Change in Mass (%) - ref, Hysteresis
value_units: %
value_observed: −8.64

From here, focus on the item given below.
Give its Change in Mass (%) - ref, Hysteresis value. Item: Cc1nc(-c2ccc(OCC(C)C)c(C#N)c2)sc1C(=O)O [Form XI]
0.164

----------
# protocol_notes: Hygroscopicity measurements (DVS sorption/desorption profiles)
# Type: physicochemical
# conditions_used: Target % P/P0 20.0; 25° C.
readout: Change in Mass (%) - ref, Sorption
// return numeric value only (unit: %, not printed)

Study these solved cases before continuing.
molecule: Cc1nc(-c2ccc(OCC(C)C)c(C#N)c2)sc1C(=O)O [Form IX]
Change in Mass (%) - ref, Sorption: 0.195
--
molecule: Cc1nc(-c2ccc(OCC(C)C)c(C#N)c2)sc1C(=O)O [Form V]
Change in Mass (%) - ref, Sorption: 0.12
--
molecule: Cc1nc(-c2ccc(OCC(C)C)c(C#N)c2)sc1C(=O)O [Form G of U.S. Pat. No. 6,225,474, reference compound]
Change in Mass (%) - ref, Sorption: 1.326

From here, focus on the item given below.
Give its Change in Mass (%) - ref, Sorption value. Item: Cc1nc(-c2ccc(OCC(C)C)c(C#N)c2)sc1C(=O)O [Form XI]
1.064

----------
# protocol_notes: Aqueous solubility measurements
# Format: physicochemical
# conditions_used: media pH 6.8 (USP); 24 hours at 25° C.

molecule: Cc1nc(-c2ccc(OCC(C)C)c(C#N)c2)sc1C(=O)O [Form G of U.S. Pat. No. 6,225,474, reference compound]
Visual solubility: Turbid + few particles
//
molecule: Cc1nc(-c2ccc(OCC(C)C)c(C#N)c2)sc1C(=O)O [Form V]
Visual solubility: Turbid + few particles
//
molecule: Cc1nc(-c2ccc(OCC(C)C)c(C#N)c2)sc1C(=O)O [Form IX]
Visual solubility: Turbid + few particles
//
molecule: Cc1nc(-c2ccc(OCC(C)C)c(C#N)c2)sc1C(=O)O [Form XI]
Visual solubility: Turbid + few particles
